- target.or.system: Rap guanine nucleotide exchange factor 3 (Homo sapiens) (UniProt O95398)
- Sequence (O95398 whole entry, looked up): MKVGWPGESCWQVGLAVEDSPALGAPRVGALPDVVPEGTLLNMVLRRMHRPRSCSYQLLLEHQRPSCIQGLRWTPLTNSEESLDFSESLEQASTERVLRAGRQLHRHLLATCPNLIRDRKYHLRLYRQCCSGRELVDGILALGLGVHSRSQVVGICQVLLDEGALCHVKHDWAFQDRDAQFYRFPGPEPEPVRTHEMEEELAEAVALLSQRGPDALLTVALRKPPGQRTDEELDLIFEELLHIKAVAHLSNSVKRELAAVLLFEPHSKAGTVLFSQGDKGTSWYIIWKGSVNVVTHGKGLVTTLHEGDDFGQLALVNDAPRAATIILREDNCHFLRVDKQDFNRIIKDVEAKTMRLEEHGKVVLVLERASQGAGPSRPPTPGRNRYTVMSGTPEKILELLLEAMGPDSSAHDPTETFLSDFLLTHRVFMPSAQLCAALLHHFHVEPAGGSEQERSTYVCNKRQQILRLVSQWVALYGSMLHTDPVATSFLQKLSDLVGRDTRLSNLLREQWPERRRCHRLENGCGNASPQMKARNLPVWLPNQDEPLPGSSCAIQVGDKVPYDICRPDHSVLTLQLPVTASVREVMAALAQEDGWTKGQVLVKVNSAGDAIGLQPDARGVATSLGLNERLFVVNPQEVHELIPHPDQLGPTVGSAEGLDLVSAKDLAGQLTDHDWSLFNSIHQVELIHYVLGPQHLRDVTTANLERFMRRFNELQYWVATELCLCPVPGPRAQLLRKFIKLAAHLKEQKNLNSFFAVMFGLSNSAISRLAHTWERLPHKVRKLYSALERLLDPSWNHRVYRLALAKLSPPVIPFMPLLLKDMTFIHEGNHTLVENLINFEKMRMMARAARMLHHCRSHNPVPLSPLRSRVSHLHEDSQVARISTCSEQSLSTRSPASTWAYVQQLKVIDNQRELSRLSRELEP
- test.protocol: Confirmatory qHTS for agonist of cAMP-regulated guanine nucleotide exchange factor 3 (EPAC1) (AID 1645881); note: nearly all actives have a fitted effect of over 75% in size;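 for activation: EPAC1 catalysed release of BODIPY-GDP from Rap1B seen as fluorescence loss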
- particulars: EPAC1 Rap1B BODIPY-GDP exchange fluorescence; series mostly up to 154 µM
Inconclusive results are not listed. The source made the active and inactive calls. Calls come from the whole dose curve; as a rule, active = well fitted activation curve with a large enough effect; inconclusive = small, poorly fitted or top-dose-only effect; inactive = no such curve, though single readings can be large or run the other way.
Select the matching outcome among active, inactive

Please review the entries below; each comes with its answer.
> print(dat)
                                   molecule  answer.label
1  O=C(c1ccc2c(c1)CCCC2)N1CCN(c2nc3ccc(F)cc3s2)CC1      inactive
2  COc1cc(/C=C2/C(=O)NN(c3cccc(Cl)c3)C2=O)cc(OC)c1O      inactive
3  O=C1c2cccc3c(O)ccc(c23)C(=O)N1c1ccc(Cl)cc1        active

Returns: the outcome recorded for COc1ccc2c(c1)CCC1(C)CC(=O)C(Br)=C21 (stereo unspecified) in this assay.
inactive

Returns: the outcome recorded for `COc1ccc(CNC(=S)N/N=C/c2ccc(OC)c(OC)c2)cc1` in this assay.
inactive

Returns: the outcome recorded for `CSc1nc(C)cc(C)c1S(=O)(=O)c1ccccc1C` in this assay.
inactive

Returns: the outcome recorded for `CCOC(=O)Cc1nn(Cc2ccc(Cl)cc2)c(=O)c2ccccc12` in this assay.
inactive

Returns: the outcome recorded for `Cc1c(C(=O)N2CCN(c3ncccn3)CC2)oc2c(Cl)cccc12` in this assay.
inactive

Returns: the outcome recorded for `CCN1CCN(c2ccc(S(=O)(=O)N3CCOCC3)cc2NC(=O)c2cc(Cl)nc3ccccc23)CC1` in this assay.
inactive

Returns: the outcome recorded for `CSc1nc(N)c(C(=O)N(c2ccccc2)c2ccccc2)s1` in this assay.
inactive

Returns: the outcome recorded for CCCn1nc([N+](=O)[O-])c(C(C#N)c2nc3ccccc3o2)c(Cl)c1=O (stereo unspecified) in this assay.
inactive

----------
- target.or.system: Rap guanine nucleotide exchange factor 3 (Homo sapiens) (UniProt O95398)
- test.protocol: Confirmatory qHTS for agonist of cAMP-regulated guanine nucleotide exchange factor 3 (EPAC1) (AID 1645881); note: nearly all actives have a fitted effect of over 75% in size; note: potency is the fitted concentration of half-maximal effect;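 for activation: EPAC1 catalysed release of BODIPY-GDP from Rap1B seen as fluorescence loss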
- particulars: EPAC1 Rap1B BODIPY-GDP exchange fluorescence; series mostly up to 154 µM
Results filed as inconclusive are left out. The source made the active and inactive calls. Calls follow the shape of the dose curve; as a rule, active = well fitted activation curve with a large enough effect; inconclusive = small, poorly fitted or top-dose-only effect; inactive = no such curve, though single readings can be large or run the other way.
quantity.measured: Potency

Illustrative cases are given below, each with its answer.
> print(dat)
                                   compound                          target.or.system  value.observed
1  Cc1ccc(OCC(=O)OC(C)CN(C)Cc2ccccc2)cc1 (configuration not stated)  Rap guanine nucleotide exchange factor 3 (Homo sapiens) (UniProt O95398)        inactive
2  Cc1ccc(-n2nc3c(=O)n(CCCC(=O)NCc4ccc(F)cc4)nc(C)c3c2C)cc1  Rap guanine nucleotide exchange factor 3 (Homo sapiens) (UniProt O95398)        inactive
3  CCOc1ccc(Br)cc1S(=O)(=O)Nc1ccc(S(=O)(=O)Nc2cc(C)on2)cc1  Rap guanine nucleotide exchange factor 3 (Homo sapiens) (UniProt O95398)        inactive
4  N=C1S/C(=C\c2ccco2)C(=O)N1c1ccc2c(c1)OCO2  Rap guanine nucleotide exchange factor 3 (Homo sapiens) (UniProt O95398)        inactive
5  COc1cc(/C=C/[N+](=O)[O-])ccc1OCc1cccc(C(=O)O)c1  Rap guanine nucleotide exchange factor 3 (Homo sapiens) (UniProt O95398)        inactive
6  Cc1cccc(-n2ccnc2SCC(=O)Nc2ccc(F)cc2F)c1C  Rap guanine nucleotide exchange factor 3 (Homo sapiens) (UniProt O95398)        inactive

Potency recorded for this compound, `COC(=O)CSc1ncnc2scc(-c3ccccc3)c12` , is inactive

Potency recorded for this compound, `COc1cc(C(=O)c2ccccc2)c([N+](=O)[O-])cc1OC` , is inactive

Potency recorded for this compound, `COc1ccc(/C=C/C(=O)Oc2ccc(C)c(C)c2)cc1OC` , is inactive

Potency recorded for this compound, `COc1ccccc1/C=C1\SC(=S)N(NS(=O)(=O)c2ccccc2)C1=O` , is inactive

Potency recorded for this compound, `CCc1noc(C)c1C(=O)Nc1nc2c(C)cc(C)cc2s1` , is inactive

These data points were gathered from PubChem BioAssay (NCATS).
